Entries and their IC50 values follow.
# Experimental target: P. vivax DHODH (Plasmodium vivax, UniProt A5K1N1)
# Sequence (A5K1N1 entry or part of it): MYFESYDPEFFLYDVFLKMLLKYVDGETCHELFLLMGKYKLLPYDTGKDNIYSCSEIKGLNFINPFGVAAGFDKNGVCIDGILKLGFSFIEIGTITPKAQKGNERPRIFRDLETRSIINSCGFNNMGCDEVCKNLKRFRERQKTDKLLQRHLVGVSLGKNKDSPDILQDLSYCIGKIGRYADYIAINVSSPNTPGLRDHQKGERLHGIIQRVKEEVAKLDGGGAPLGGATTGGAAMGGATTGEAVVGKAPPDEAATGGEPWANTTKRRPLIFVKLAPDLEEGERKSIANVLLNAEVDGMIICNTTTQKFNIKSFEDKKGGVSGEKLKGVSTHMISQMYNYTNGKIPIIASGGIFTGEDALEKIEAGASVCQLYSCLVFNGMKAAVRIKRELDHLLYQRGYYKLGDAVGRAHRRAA
# Assay text: DHODH inhibition, steady-state DCIP assay (PvDHODH)
# Format: biochemical
# Test conditions: read-out: P. vivax DHODH (IC50); recombinant PvDHODH, DCIP method, 25°C, 5 nM enzyme
Experimental readout: IC50 (nM)

# Molecule, Experimental target, Reading unit, Observed value
records = [
    ("Cn1nc2c(=O)n(C3CC3)ccc2c1[C@](O)(c1ccc(C(F)(F)F)c(Cl)c1)C(F)(F)F (stereo in doubt)", "P. vivax DHODH (Plasmodium vivax, UniProt A5K1N1)", "nM", 9.1),
    ("Cn1nc2c(=O)n(C3CC3)ccc2c1[C@](C)(O)c1cnc(C(F)(F)F)c(Cl)c1", "P. vivax DHODH (Plasmodium vivax, UniProt A5K1N1)", "nM", 9.7),
]

----------
# Experimental target: P. vivax DHODH (Plasmodium vivax, UniProt A5K1N1)
# Assay text: DHODH inhibition, steady-state DCIP assay (PvDHODH)
# Type: biochemical
# Test conditions: recombinant PvDHODH, DCIP method, 25°C, 5 nM enzyme; read-out: P. vivax DHODH (IC50)

# Compound, IC50 (nM)
measured = [
    ("CCn1ncc2c([C@@](O)(CC)c3ccc(C(F)(F)F)c(Cl)c3)n(C)nc2c1=O (single isomer, unassigned)", 2.9),
    ("Cn1nc2c(=O)n(C3CC3)ccc2c1[C@](N)(c1cnc(C(F)(F)F)c(Cl)c1)C(F)(F)F (single isomer, unassigned)", 13),
    ("CCC(O)(c1cnc(C(F)(F)F)c(Cl)c1)c1c2cc(C)n(C3CC3)c(=O)c2nn1C (stereo not drawn)", 26),
    ("Cn1nc2c(=O)n(C3CC3)ccc2c1[C@](O)(c1ccc(C(F)(F)F)c(C#N)c1)C1CC1 (single isomer, unassigned)", 17),
    ("CC[C@@](O)(c1ccc(C(F)(F)F)c(C#N)c1)c1c2ccn(C3CC3)c(=O)c2nn1C (single isomer, unassigned)", 21),
    ("CC[C@@](O)(c1ccc(C(F)(F)F)c(Cl)c1)c1c2cnn(C3CC3)c(=O)c2nn1C (single isomer, unassigned)", 9.8),
]

----------
Entries and their IC50 values follow.
# Experimental target: Human DHODH (Homo sapiens)
# Construct: C-terminal His6-tagged HsDHODH residues 29-395 in pET-22b (start ^29MATGDE); His6 (C)
# Sequence (Q02127 29-395): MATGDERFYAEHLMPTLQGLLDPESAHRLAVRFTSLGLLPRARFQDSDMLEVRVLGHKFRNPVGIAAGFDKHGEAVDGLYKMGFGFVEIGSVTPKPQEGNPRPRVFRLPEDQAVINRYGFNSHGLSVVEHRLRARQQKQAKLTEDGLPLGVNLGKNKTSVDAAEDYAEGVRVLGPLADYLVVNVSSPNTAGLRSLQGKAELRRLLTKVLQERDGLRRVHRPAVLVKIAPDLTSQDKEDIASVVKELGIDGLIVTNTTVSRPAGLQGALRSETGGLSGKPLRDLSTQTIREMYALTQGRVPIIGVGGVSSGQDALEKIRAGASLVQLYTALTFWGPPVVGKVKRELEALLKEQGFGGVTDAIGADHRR
# Assay text: DHODH inhibition, steady-state DCIP assay (human DHODH)
# Test conditions: recombinant HsDHODH, DCIP method, 25°C, 5 nM enzyme; top concentration 100 µM or 30 µM

# Compound, Experimental target, IC50
rows = [
    ("Cn1nc2c(=O)n(C3CC3)ccc2c1[C@](N)(c1ccc(C(F)(F)F)c(Cl)c1)C(F)(F)F (single isomer, unassigned)", "Human DHODH (Homo sapiens)", "9 µM"),
    ("Cn1nc2c(=O)n(C3CC3)ccc2c1[C@](O)(c1ccc(C(F)(F)F)nc1)C1CC1 (single isomer, unassigned)", "Human DHODH (Homo sapiens)", "> 30 µM"),
    ("CCn1cc(C2CC2)c2c([C@H](O)c3cnc(C(F)(F)F)c(Cl)c3)n(C)nc2c1=O (single isomer, unassigned)", "Human DHODH (Homo sapiens)", "> 100 µM"),
]
